Experiment: MTT cell viability (cytotoxicity)
Format: cell-based
Conditions: mouse
recordedMetric: CC50 at 24 h

GET /values?readout=CC50 at 24 h&item= COc1ccc2c(c1)c(CC(=O)O)c(C)n2C(=O)c1ccc(Cl)cc1 [Indomethacin, reference compound]
> 50 µM

###

Assay: MTT cell viability (cytotoxicity)
Assay type: cell-based
Details: mouse; RAW 264.7 cells, MTT assay; read-out: cytotoxic effects on RAW 264.7 cells (IC50)
Below, each entry is listed alongside its reported IC50 at 24 h.

// below: answered compounds
- C[C@H]1OC(=O)C(CC2=C(O)[C@@H](C)OC2=O)=C1O: > 50 µM
- O=c1[nH]c2ccccc2c(-c2ccccc2)c1O [Compound 4, 3-hydroxy-4-phenylquinolin-2(1H)-one]: < 50 µM
- CC1OC(=O)C(C2CCNC3=C2C(=O)OC3C)=C1O (stereo not shown): > 50 µM

GET /values?readout=IC50 at 24 h&item= "CCCCCCCCCCCCCCCC(=O)OC1=C([C@@H]2CCN(C(=O)CCCCCCCCCCCCCCC)C3=C2C(=O)O[C@@H]3C)C(=O)O[C@@H]1C"
< 50 µM

###

Test system: Escherichia coli (ATCC 25922)
recordedMetric: MIC (µg/mL)
Enter your answer as a number in µg/mL; do not include the unit.

* CC1OC(=O)C(C2CCNC3=C2C(=O)OC3C)=C1O (centres unmarked) | 1000

Now consider a different molecule.
GET /values?readout=MIC&item= "C[C@H]1OC(=O)C(CC2=C(O)[C@@H](C)OC2=O)=C1O"
1000

###

Below, each entry is listed alongside its reported CC50 at 24 h.
Experiment: MTT cell viability (cytotoxicity)
Type: cell-based
Details: mouse; RAW 264.7 cells, MTT; evaluated with cell viability at 50 μM; read-out: Cytotoxicity (CC50)

// below: answered compounds
* CCCCCCCCCCCCCCCC(=O)OC1=C([C@@H]2CCN(C(=O)CCCCCCCCCCCCCCC)C3=C2C(=O)O[C@@H]3C)C(=O)O[C@@H]1C [Compound 1a] | < 50 µM
* C[C@H]1OC(=O)C(CC2=C(O)[C@@H](C)OC2=O)=C1O [Compound 2] | > 50 µM
* CC1OC(=O)C(C2CCNC3=C2C(=O)OC3C)=C1O (centres unmarked) [Compound 1, penifuranone A] | > 50 µM
* O=c1[nH]c2ccccc2c(-c2ccccc2)c1O [Compound 4, 3-hydroxy-4-phenylquinolin-2(1H)-one] | < 50 µM

GET /values?readout=CC50 at 24 h&item= C[C@@H]1C[C@H]2[C@@H]3CCC4=CC(=O)C=C[C@]4(C)[C@@]3(F)[C@@H](O)C[C@]2(C)[C@@]1(O)C(=O)CO [Dexamethasone, reference compound]
> 50 µM

###

Observed MIC for Penicillium italicum, reported per entry below.
Enter your answer as a number in mg/L; do not include the unit.

// below: answered molecules
* O=c1[nH]c2ccccc2c(-c2ccccc2)c1O [Compound 4, 3-hydroxy-4-phenylquinolin-2(1H)-one] | 250
* CC1OC(=O)C(C2CCNC3=C2C(=O)OC3C)=C1O (centres unmarked) | 250
* C[C@H]1OC(=O)C(CC2=C(O)[C@@H](C)OC2=O)=C1O | 250

Now consider a different molecule.
Hi! What's the reported MIC for "CCCCCCCCCCCCCCCC(=O)OC1=C([C@@H]2CCN(C(=O)CCCCCCCCCCCCCCC)C3=C2C(=O)O[C@@H]3C)C(=O)O[C@@H]1C" on Penicillium italicum?
125
